Assay: Inhibition of recombinant N-glutathione transferase/human DDAH1 fusion protein
Measurement type: Ki (µM)

> print(dat)
                       compound  value
1  NCCCC[C@H](N)C(=O)O [LYSINE]   2800
